This listing pairs molecules with measured half-life at 20 μM.
test: Stability in human fecal homogenate; assay type: in vitro ADME; conditions: 20% fecal homogenate (supernatant), pH 6.8, 20% human fecal homogenate, anaerobic, 37° C., read-out: t½: Human Feces anaerobic (converted)
Bridge positions count the residues as written; N and C are the ends. Square brackets hold non-standard residues; d marks the D form. Peptide text beside a SMILES is read from it. Trp(7-Me) = Cc1cccc2c(C[C@H](N)C(=O)O)c[nH]c12; 2Nal = N[C@@H](Cc1ccc2ccccc2c1)C(=O)O; AEF = NCCOc1ccc(C[C@H](N)C(=O)O)cc1; Cit = NC(=O)NCCC[C@H](N)C(=O)O; Pen = CC(C)(S)[C@H](N)C(=O)O; αMeK = C[C@](N)(CCCCN)C(=O)O; Aib = CC(C)(N)C(=O)O; βAla = NCCC(=O)O; Sar = CNCC(=O)O

input: Recorded half-life at 20 μM of CC(=O)NCCCC[C@H](NC(=O)[C@](C)(CCCCN)NC(=O)[C@H](Cc1ccc2ccccc2c1)NC(=O)[C@H](Cc1ccc(OCCN)cc1)NC(=O)[C@H]1NC(=O)[C@H](CCCNC(N)=O)NC(=O)[C@H](Cc2c[nH]c3c(C)cccc23)NC(=O)[C@H]([C@@H](C)O)NC(=O)[C@H](CC(N)=O)NC(=O)[C@@H](NC(C)=O)C(C)(C)SSC1(C)C)C(=O)N[C@@H](CC(N)=O)C(=O)NC(C)(C)C(=O)NCCC(N)=O [compound 340] (Ac-[Pen]NT[Trp(7-Me)][Cit][Pen][AEF][2Nal][αMeK]K(Ac)N[Aib][βAla]-NH2; disulfide 1-6) , please.
output: > 24 h

Now for the molecule whose half-life at 20 μM we want.
input: Recorded half-life at 20 μM of CC(=O)NCCCC[C@H](NC(=O)[C@](C)(CCCCN)NC(=O)[C@H](Cc1ccc2ccccc2c1)NC(=O)[C@H](Cc1ccc(OCCN)cc1)NC(=O)[C@H]1NC(=O)[C@H](CCCNC(N)=O)NC(=O)[C@H](Cc2c[nH]c3c(C)cccc23)NC(=O)[C@H]([C@@H](C)O)NC(=O)[C@H](CC(N)=O)NC(=O)[C@@H](NC(C)=O)C(C)(C)SSC1(C)C)C(=O)N[C@@H](CC(N)=O)C(=O)N(C)CC(N)=O [compound 339] (Ac-[Pen]NT[Trp(7-Me)][Cit][Pen][AEF][2Nal][αMeK]K(Ac)N[Sar]-NH2; disulfide 1-6) , please.
output: > 24 h

Cited source for all entries: patent US11041000B2
